# Tested on: E28 (patient-derived glioblastoma stem cells of classical subtype);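 further: cell Painting imaging in 384-well plates, CellProfiler features reduced to at least 20 principal components, Euclidean distance versus same-plate DMSO vehicle wells (0.1% v/v), median over six images per well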
# assay procedure: phenotypic distance (Euclidean, principal components) from DMSO controls (arbitrary units); higher = stronger morphological change
# conditions used: 111.1 nM; exposure time: 72 h
Structures can show the parent of a compound that is named as a salt.
phenotypic distance overview

[
  {
    "compound": "COc1ccc2c(c1)CC[C@@H]1[C@@H]2CC[C@]2(C)[C@@H](NCCCCCCN3C(=O)CCC3=O)CC[C@@H]12",
    "phenotypic distance": 0.724
  },
  {
    "compound": "OC[C@H]1O[C@@H](Oc2ccc(O)cc2)[C@H](O)[C@@H](O)[C@@H]1O",
    "phenotypic distance": 1.1
  },
  {
    "compound": "Clc1ccc(COC(Cn2ccnc2)c2ccc(Cl)cc2Cl)c(Cl)c1 (stereo not given)",
    "phenotypic distance": 0.493
  },
  {
    "compound": "CC(C)C[C@H](NC(=O)[C@H](CCc1ccccc1)NC(=O)CN1CCOCC1)C(=O)N[C@@H](Cc1ccccc1)C(=O)N[C@@H](CC(C)C)C(=O)[C@@]1(C)CO1",
    "phenotypic distance": 5.31
  },
  {
    "compound": "OC(c1cc(C(F)(F)F)nc2c(C(F)(F)F)cccc12)C1CCCCN1 (stereo not given) [Mefloquine hydrochloride]",
    "phenotypic distance": 0.677
  }
]
